Assay: Cytotoxicity against human MT4 cells assessed as reduction in cell viability measured after 4 days by MTT assay
Assay type: cell-based
Details: time 4 day
I'd appreciate it if you could label each record using CC50 at 96 h and these ranges: label 0 (below 9 µM), label 1 (9 µM to below 20 µM), label 2 (20 µM or more)

stdin: Quick check: band for Cc1ccc(-c2c(C)c(-c3ccc(Cl)cc3)c(C(OC(C)(C)C)C(=O)O)c(C)c2NS(C)(=O)=O)cc1C (stereo not drawn)
stdout: label 2

stdin: Quick check: band for CCNC(=O)Nc1c(C)c(C(OC(C)(C)C)C(=O)O)c(-c2ccc(C)c(C)c2)c(C)c1-c1ccc(C)c(C)c1 (stereo not drawn)
stdout: label 1

stdin: Quick check: band for Cc1ccc(-c2c(C)c(-c3ccc(C)c(C)c3)c(C(OC(C)(C)C)C(=O)O)c(C)c2NS(=O)(=O)c2ccccc2)cc1C (stereo not drawn)
stdout: label 1

stdin: Quick check: band for Cc1ccc(-c2c(C)c(-c3ccc(C)c(C)c3)c(C(OC(C)(C)C)C(=O)O)c(C)c2NC(=O)Nc2ccccc2)cc1C (stereo not drawn)
stdout: label 0

stdin: Quick check: band for Cc1ccc(-c2c(C)c(-c3ccc4c(c3C)CCCO4)c(C(OC(C)(C)C)C(=O)O)c(C)c2NS(C)(=O)=O)cc1C (stereo not drawn)
stdout: label 2

stdin: Quick check: band for Cc1ccc(-c2c(C)c(-c3ccc(C)c(C)c3)c(C(OC(C)(C)C)C(=O)O)c(C)c2NCc2ccccc2)cc1C (stereo not drawn)
stdout: label 0

stdin: Quick check: band for Cc1ccc(-c2c(C)c(-c3ccccc3)c(C(OC(C)(C)C)C(=O)O)c(C)c2NS(C)(=O)=O)cc1C (stereo not drawn)
stdout: label 2

stdin: Quick check: band for Cc1ccc(-c2c(C)c(-c3ccc4c(c3)CCO4)c(C(OC(C)(C)C)C(=O)O)c(C)c2NS(C)(=O)=O)cc1C (stereo not drawn)
stdout: label 2

stdin: Quick check: band for Cc1ccc(-c2c(C)c(-c3ccc4c(c3)N(C)CCO4)c(C(OC(C)(C)C)C(=O)O)c(C)c2NS(C)(=O)=O)cc1C (stereo not drawn)
stdout: label 2

stdin: Quick check: band for Cc1ccc(-c2c(C)c(-c3ccc(C)c(C)c3)c(C(OC(C)(C)C)C(=O)O)c(C)c2NS(=O)(=O)C2CC2)cc1C (stereo not drawn)
stdout: label 1

----------
The entries below are paired with their reported AUC at 24 h.
Assay: AUC in Sprague-Dawley rat at 0.5 mg/kg, iv measured for 24 hrs by LC-MS/MS analysis
Type: ADME, organism-based
Parameters: dose 0.5 mg/kg, time 24 hrs
Conditions: in vivo
Reply numerically in ng·h/mL, unit not repeated.

>>> number("Cc1nc2ccccc2c(-c2ccc3c4c(ccnc24)CCO3)c1[C@H](OC(C)(C)C)C(=O)O [BI-224436]")
7680

stdin: Respond only with AUC at 24 h recorded for Cc1ccc(-c2c(C)c(-c3ccc4c(c3C)CCCO4)c(C(OC(C)(C)C)C(=O)O)c(C)c2NS(C)(=O)=O)cc1C (configuration not stated)
stdout: 1190

----------
Test: Oral bioavailability in Sprague-Dawley rat 1 mg/kg administered as cassette dosing measured for 24 hrs by LC-MS/MS analysis
Type: ADME, organism-based
Conditions: in vivo
The entries below are paired with their reported bioavailability.
Reply numerically in %, unit not repeated.

>>> number("Cc1nc2ccccc2c(-c2ccc3c4c(ccnc24)CCO3)c1[C@H](OC(C)(C)C)C(=O)O")
64

stdin: Respond only with bioavailability recorded for Cc1ccc(-c2c(C)c(-c3ccc4c(c3C)CCCO4)c(C(OC(C)(C)C)C(=O)O)c(C)c2NS(C)(=O)=O)cc1C (configuration not stated)
stdout: 36

----------
The entries below are paired with their reported CC50 at 96 h.
Assay: Cytotoxicity against human MT4 cells assessed as reduction in cell viability measured after 4 days by MTT assay
Assay type: cell-based
Details: time 4 day
Reply numerically in µM, unit not repeated.

Example entries begin here.
>>> number("CNC(=O)Nc1c(C)c(C(OC(C)(C)C)C(=O)O)c(-c2ccc(C)c(C)c2)c(C)c1-c1ccc(C)c(C)c1 (stereo not drawn)")
20
>>> number("Cc1ccc(-c2c(C)c(-c3ccc(C)c(C)c3)c(C(OC(C)(C)C)C(=O)O)c(C)c2NC(=O)c2ccccc2)cc1C (stereo not drawn)")
9.1

Then there is this molecule:
stdin: Respond only with CC50 at 96 h recorded for CNc1c(C)c(C(OC(C)(C)C)C(=O)O)c(-c2ccc(C)c(C)c2)c(C)c1-c1ccc(C)c(C)c1 (stereo not drawn)
stdout: 8.8
